Reported Bias factor (CL95%) values are given for each entry in this list.
# Tested on: mu receptor
# METHOD: Bias factor, mu-G protein vs mu-β-arrestin 2 (BRET), EM-2 as standard ligand
# EXPERIMENTAL SETUP: log10 units, towards G protein
Non-standard residues stand in square brackets, D forms with d. Residues, ends and D or L forms follow the SMILES beside them. d(β3hA) = C[C@@H](N)CC(=O)O

Reference set (3 entries):
Item: C[C@H](CNC(=O)[C@@H](N)Cc1ccc(O)cc1)C(=O)N[C@@H](Cc1ccccc1)C(=O)N[C@@H](Cc1ccccc1)C(N)=O [analog 6, Tyr-(R)-β ^ 2 -Ala-Phe-Phe-NH2] Test system: mu receptor Read-out: Bias factor (CL95%) Value: ? 1.35 (1.15–1.55)

Item: Cc1cc(O)cc(C)c1C[C@H](N)C(=O)NC[C@@H](C)C(=O)N[C@@H](Cc1ccccc1)C(=O)N[C@@H](Cc1ccccc1)C(N)=O [analog 7, Dmt-(R)-β ^ 2 -Ala-Phe-Phe-NH2] Test system: mu receptor Read-out: Bias factor (CL95%) Value: ? 0.67 (0.49–0.84)

Item: Cc1cc(O)cc(C)c1C[C@H](N)C(=O)N1CCC[C@H]1C(=O)N[C@@H](CC(=O)N[C@@H](Cc1ccccc1)C(N)=O)Cc1cccc2ccccc12 [analog 13, Dmt-Pro-(R)-β ^ 3 -1-Nal-Phe-NH2] Test system: mu receptor Read-out: Bias factor (CL95%) Value: ? 0.27 (0.20–0.34)

Read the next record carefully.
Item: C[C@H](CC(=O)N[C@@H](Cc1ccccc1)C(=O)N[C@@H](Cc1ccccc1)C(N)=O)NC(=O)[C@@H](N)Cc1ccc(O)cc1 [analog 8, Tyr-(R)-β ^ 3 -Ala-Phe-Phe-NH2] (H-Y[d(β3hA)]FF-NH2; N-terminus assumed) Test system: mu receptor Read-out: Bias factor (CL95%) Value: ? 0.76 (0.55–0.98)
